Hi there, I'd appreciate the recorded TGI for every entry that follows.
system: NCI/ADR-RES ovarian; experiment: NCI tumour cell line growth inhibition, 48 h

Q: Can you look up the measured TGI of `Cc1cc2oc(C)c(S(=O)(=O)NC(=O)Nc3ccc(Cl)cc3)c(=O)c2c(=O)o1` for me?
Ans: > 100 µM

Q: Given the compound `O=C(C(Cl)=C(N1CCCCC1)N1CCCCC1)C(Cl)Cl` , what is its reported TGI?
Ans: > 100 µM

Q: Tell me the measured TGI of `CC12ON(P(=O)(c3ccccc3)c3ccccc3)C(C)(c3ccccc31)c1ccccc12` , please.
Ans: > 100 µM

====

Would you kindly list TGI for each of these compounds?
system: COLO 205 colon; assay: NCI tumour cell line growth inhibition, 48 h

Q: Query the reported TGI for COLO 205 colon; item: `O=C(N/N=C(/COc1ccccc1Cl)N=Cc1ccncc1)c1ccncc1`
Ans: > 100 µM

Q: GET /values?readout=TGI&system=COLO 205 colon&item= Cc1ccc(S(=O)(=O)N/N=C2/CCC(C(C)(C)C)CC2Br)cc1 (stereo unspecified)
Ans: > 100 µM

Q: Record `CCCCn1c2ccccc2c2ccc3c(c21)C(=O)C=CC3=O` : what is its TGI with COLO 205 colon?
Ans: > 100 µM

Q: Hello, I am looking for reported TGI with COLO 205 colon for `CS/C(c1ccccc1)=[N+](\[O-])Cc1ccccc1` . Could you help?
Ans: > 100 µM

Q: # returns recorded TGI (system: COLO 205 colon) for CCOC(=O)C(NC(=O)CC)(Nc1ccc(F)c(Cl)c1)C(F)(F)F (stereo unspecified)
Ans: > 100 µM

Q: Give recorded TGI with COLO 205 colon for the following compound: `CC12ON(P(=O)(c3ccccc3)c3ccccc3)C(C)(c3ccccc31)c1ccccc12`
Ans: > 100 µM

====

test system: COLO 205 colon; experiment: NCI tumour cell line growth inhibition, 48 h; in the data active means GI50 below about 0.43 µM; inactive means the rest
// allowed return values: active, inactive

Q: Short answer needed: outcome of this test for COc1cccc(C2SC(C)C(=O)N2CCc2cccs2)c1 (centres undefined) ?
Ans: inactive

Q: Field: outcome | Entry: `CC(C)C[C@H](NC(=O)[C@H](Cc1cccc2ccccc12)NS(=O)(=O)c1cccc2cccnc12)B(O)O`
Ans: active

Q: // param item: `COc1cc(NC(=O)NCc2ccco2)ccc1-c1ccc(NC(=O)NCc2ccco2)cc1OC` ; yields the recorded call
Ans: inactive

Q: How was `CC(C)C(=O)[O-].CC(C)C(=O)[O-].N.N.N.N.[Co+3].[O-][Cl+3]([O-])([O-])[O-]` classified in this test?
Ans: inactive

====

test system: SK-MEL-28 melanoma; test: NCI tumour cell line growth inhibition, 48 h
RESULT TYPE: TGI

Q: Data request, read-out TGI, for NC(CC(O)(c1ccccc1)c1ccccc1)c1ccccc1S (stereo not given)
Ans: 31.5 µM

Q: Need TGI, item `CN(C)CCCCn1ccc2c1C(=O)c1c(c(O)c3ccccc3c1O)C2=O`
Ans: 28.2 µM

Q: # query: TGI of entry `O=[N+]([O-])c1cccc(Cl)c1Oc1ccc(S(=O)(=O)/N=C(\NO)Nc2ccc(Cl)cc2)cc1`
Ans: 34.7 µM

Q: So what's the measured TGI for this one? `CC(=O)NC1(C(=O)N[C@@H](Cc2ccccc2)C(=O)NC2CCCCC2)Cc2ccc3ccccc3c2-c2c(ccc3ccccc23)C1`
Ans: > 100 µM

Q: # lookup: TGI of O=[N+]([O-])c1ccc(N2N=C(c3ccc4ccccc4c3O)CC2c2ccc(Cl)cc2)c([N+](=O)[O-])c1 (stereo not given)
Ans: > 100 µM

Q: Given `CCCCn1c2ccccc2c2ccc3c(c21)C(=O)C=CC3=O` , state its recorded TGI.
Ans: > 100 µM

Q: # query: TGI of entry `O=[N+]([O-])c1ccc(O)c(/C=N/c2nc(-c3ccccc3)cs2)c1`
Ans: > 100 µM

Q: Fill blank: measured TGI of the molecule OCC(CCc1c[nH]c2ccccc12)c1c[nH]c2ccccc12 (stereo not given) is ____.
Ans: 36.6 µM

Q: If you can, please state the reported TGI value of `CS(=O)(=O)N(CCC#N)c1ccc(C=O)cc1` .
Ans: > 100 µM

Q: Look up TGI for this molecule: `Cc1cc(C)c(S(=O)(=O)N(CCc2cccc(Br)c2)Cc2ccc(-c3cccc(S(C)(=O)=O)c3)cc2)c(C)c1`
Ans: > 100 µM

Q: What TGI value was documented for this molecule, `CCOC(=O)C(=O)CC(=O)C1=C(c2ccccc2OC)CC(c2cccs2)=CC1=O` ?
Ans: > 100 µM

Q: Return reported TGI; argument: `CNC(=S)NNc1ncnc2c1ncn2-c1ccc(C)cc1`
Ans: > 100 µM

Q: TGI lookup needed for `CCOC(=O)c1ccc(N2C(=O)Cc3ccccc3C2=O)cc1` , thanks.
Ans: > 100 µM

Q: What value of measured TGI is listed for `CN(C)CCSCCO` ?
Ans: > 100 µM

Q: Dear colleague, I am looking for the recorded TGI of the following molecule: `Nc1ccc2ccc(-c3ccc[nH]3)nc2n1`
Ans: > 100 µM

Q: Could you tell me which TGI is on file for `Cc1ccc2nc(-c3ccc(N)c4ccccc34)[nH]c2c1` ?
Ans: > 54.1 µM

Q: Fill in the blank: the reported TGI of CN(Cc1cnc2nc(N)nc(N)c2n1)c1ccc(C(=O)NC(CCC(=O)NC(CC(P(=O)(O)O)P(=O)(O)O)C(=O)O)C(=O)O)cc1 (stereo not given) is ____.
Ans: > 100 µM

Q: I am curious: what TGI value has been reported for `Clc1ccc(CNc2nccc(-c3cnn4ncccc34)n2)cc1` ?
Ans: 17.5 µM

Q: Any idea what its TGI is? The molecule is `Cc1cc2oc(C)c(S(=O)(=O)NC(=O)Nc3ccc(Cl)cc3)c(=O)c2c(=O)o1`
Ans: > 100 µM

Q: I would be grateful if you could share the reported TGI for `CN[C@@H](C)[C@@H](O)c1ccccc1` .
Ans: > 100 µM

Q: Endpoint output: TGI of `O=C(C(Cl)=C(N1CCCCC1)N1CCCCC1)C(Cl)Cl` . Value?
Ans: > 100 µM

Q: Give the measured TGI of c1ccc(B2OCC(C3OB(c4ccccc4)OC4COB(c5ccccc5)OC43)O2)cc1 (stereo not given) .
Ans: > 100 µM

Q: # get_value(readout='TGI', item= `N=c1oc2ccccc2cc1-c1nc2ccccc2c(=O)[nH]1` )
Ans: > 100 µM

Q: Given the molecule O=C(Nc1ccc(Br)cc1)C(=O)C(C(=O)c1ccccc1F)C1OC(=O)c2ccccc21 (stereo not given) , what is its reported TGI?
Ans: 50.2 µM

Q: // query TGI value for entry COC(=O)[C@H](C)NC(=O)[C@@H](OC)[C@@H]1Cc2cc3cc(OC4CC(OC5CC(O)C(O)C(C)O5)C(O)C(C)O4)c(C)c(O)c3c(O)c2C(=O)[C@H]1OC1CC(OC2CC(OC3CC(C)(O)C(O)C(C)O3)C(O)C(C)O2)C(O)C(C)O1 (stereo not given in full)
Ans: 0.351 µM

Q: Value lookup for TGI; key = CCCCCCCCCCCCCCCCCC(=O)Nc1ccn(C2CCC(COP(=O)(O)O)O2)c(=O)n1 (stereo not given)
Ans: > 100 µM

Q: // lookup TGI for COc1nc2c(nc(N)n2C2OCC(O)C(O)C2O)c(=O)n1C (stereo not given)
Ans: > 100 µM

Q: GET /values?readout=TGI&item= `Nc1c(C(=O)N/N=C/c2ccc(-c3cc(Cl)c(Cl)cc3Cl)o2)cnn1-c1ccnc2c(C(F)(F)F)cccc12`
Ans: > 100 µM

Q: # input molecule: CC1[C@@H]2CC=C3[C@H]4CCC5Cc6nc7c(nc6C[C@@]5(C)C4(O)CC(=O)[C@]32CO[C@]12OC(C)(C)CC2O)CC1CC[C@@H]2C3=C[C@H]4O[C@@]5(O[C@@](C)(CO)C[C@@H]5O)C(C)[C@@]4(O)[C@]3(C)[C@@H](O)CC2[C@]1(C)C7 (stereo not given in full) ; wanted: its TGI
Ans: 0.00201 µM

Q: Quick one: TGI for COc1ccc(C2SCC(=O)N2NC(=O)C(C)Oc2ccccc2C)cc1 (stereo not given) ?
Ans: > 100 µM

Q: # input molecule: `O=C(N/N=C(/COc1ccccc1Cl)N=Cc1ccncc1)c1ccncc1` ; wanted: its TGI
Ans: > 100 µM

Q: # input molecule: `Cn1ccnc1CCc1ccc(Cl)c(Cl)c1` ; wanted: its TGI
Ans: > 100 µM

Q: Can you look up the measured TGI of `COc1ccc2c(c1)c(-c1ccc(-c3cn(C)c4ccc(OC)cc34)[nH]1)cn2C` for me?
Ans: 12.4 µM

Q: # lookup: TGI of C=C1C(=O)OC2/C=C(\CO)CC/C=C(\CO)CC(OC(=O)C(C)C)C12 (stereo not given)
Ans: 42.4 µM

Q: Consider the molecule OCC(O)C(O)C(O)c1nn(-c2ccccc2)c2nc3cc(Cl)c(Cl)cc3nc12 (stereo not given) and give its measured TGI.
Ans: > 100 µM
